STUDY_SYSTEM: h-GABA-A α2β2γ1 receptor expressed in Xenopus laevis oocytes (Homo sapiens (Human), UniProt P47869+Q8N1C3)
ASSAY_NOTES: Two-electrode voltage clamp electrophysiology in Xenopus oocytes expressing GABAA receptors
Type: cell-based
PARTICULARS: GABA EC20, test compound at approx. 30-fold its Ki α2β2γ1, at least 3 oocytes
Measured Fold increase h-GABA-A α2β2γ1 oocyte @ 30-fold Ki values are reported for all entries that follow.

INSERT INTO results (smiles_repr, obs_value) VALUES
  ('Fc1cccc(F)c1C1=NCc2nnc(-c3cccnn3)n2-c2sc3c(c21)C[C@@H](C(F)F)C3', 1.47),
  ('Cc1nnc2n1-c1sc3c(c1C(c1c(F)cccc1F)=NC2)C[C@@H](C(F)F)C3', 1.54),
  ('Cc1nc2n(n1)-c1sc3c(c1C(c1c(F)cccc1F)=N[C@H]2C)C[C@@H](C(F)F)C3', 1.32),
  ('Fc1cccc(Cl)c1C1=NCc2nnc(C3CC3)n2-c2sc3c(c21)C[C@@H](C(F)F)C3', 1.85),
  ('C[C@@H]1N=C(c2c(F)cccc2Cl)c2c(sc3c2C[C@@H](C(F)F)C3)-n2c(-c3cccnn3)nnc21', 1.62),
  ('Fc1cccc(F)c1C1=NCc2nnc(C3CC3)n2-c2sc3c(c21)C[C@@H](C(F)F)C3', 1.71);

For the compound shown here, Cc1nnc2n1-c1sc3c(c1C(c1c(F)cccc1F)=N[C@H]2C)C[C@@H](C)C3 , give the reported Fold increase h-GABA-A α2β2γ1 oocyte @ 30-fold Ki.
1.45

Then Cc1nnc2n1-c1sc3c(c1C(c1c(F)cccc1Cl)=N[C@H]2C)C[C@@H](C(F)F)C3 ?
1.38

----------
STUDY_SYSTEM: h-GABA-A α2β2γ1 receptor expressed in Xenopus laevis oocytes (Homo sapiens (Human), UniProt P47869+Q8N1C3)
ASSAY_NOTES: Two-electrode voltage clamp electrophysiology in Xenopus oocytes expressing GABAA receptors
Format: cell-based
PARTICULARS: % modulation of GABA EC20 = 100*(Fold increase-1), compound at 30-fold Ki α2β2γ1
Measured Efficacy (GABA)% values are reported for all entries that follow.
# value in %; strip the unit string

Example cases with answers are listed next.
INSERT INTO assay_data (smiles_repr, units_label, obs_value) VALUES
  ('Cc1nnc2n1-c1sc3c(c1C(c1c(F)cccc1F)=N[C@H]2C)C[C@@H](C(F)F)C3', '%', 41),
  ('C[C@@H]1N=C(c2c(F)cccc2F)c2c(sc3c2C[C@@H](C(F)F)C3)-n2c(CO)cnc21', '%', 68),
  ('C[C@@H]1N=C(c2c(F)cccc2Cl)c2c(sc3c2C[C@@H](C(F)F)C3)-n2c(C3CC3)nnc21', '%', 44);

Moving on to the next compound.
For the compound shown here, Cc1nnc2n1-c1sc3c(c1C(c1c(F)cccc1F)=NC2)C[C@@H](C#N)C3 , give the reported Efficacy (GABA)%.
35

----------
Measured Ki values are reported for all entries that follow.
STUDY_SYSTEM: human GABAA α1β3γ2 receptor (Homo sapiens (Human), UniProt P14867+P18507)
ASSAY_NOTES: Radioligand binding assay, competition for [3H]Flumazenil, γ2-containing GABAA subtypes
# value in nM; strip the unit string

Example cases with answers are listed next.
INSERT INTO assay_data (molecule, units_label, obs_value) VALUES
  ('Cc1nnc2n1-c1sc3c(c1C(c1ccccc1Cl)=NC2)CCC3 [RE-A, reference compound]', 'nM', 6.6),
  ('Cc1nnc2n1-c1sc3c(c1C(c1c(F)cccc1F)=N[C@H]2C)CCC3 [RE-C, reference compound]', 'nM', 17.2),
  ('C[C@@H]1N=C(c2c(F)cccc2Cl)c2c(sc3c2C[C@@H](C(F)F)C3)-n2c(C3CC3)nnc21', 'nM', 1120);

For the molecule shown here, C[C@@H]1N=C(c2c(F)cccc2F)c2c(sc3c2C[C@H](C(F)F)C3)-n2c(CO)cnc21 , give the reported Ki.
2510

Then Fc1cccc(F)c1C1=NCc2nnc(-c3cccnn3)n2-c2sc3c(c21)C[C@@H](C(F)F)C3 ?
3220

Then Cc1nnc2n1-c1sc3c(c1C(c1c(F)cccc1Cl)=N[C@H]2C)C[C@@H](C(F)F)C3 ?
366

Then C[C@@H]1N=C(c2c(F)cccc2F)c2c(sc3c2C[C@@H](C(F)F)C3)-n2c(CO)cnc21 ?
606
